Provide the recorded Kd for the entries that follow.
- target under test: PLL3 (Photorhabdus laumondii subsp. laumondii)
- Sequence (Q7N8I7 entry or part of it): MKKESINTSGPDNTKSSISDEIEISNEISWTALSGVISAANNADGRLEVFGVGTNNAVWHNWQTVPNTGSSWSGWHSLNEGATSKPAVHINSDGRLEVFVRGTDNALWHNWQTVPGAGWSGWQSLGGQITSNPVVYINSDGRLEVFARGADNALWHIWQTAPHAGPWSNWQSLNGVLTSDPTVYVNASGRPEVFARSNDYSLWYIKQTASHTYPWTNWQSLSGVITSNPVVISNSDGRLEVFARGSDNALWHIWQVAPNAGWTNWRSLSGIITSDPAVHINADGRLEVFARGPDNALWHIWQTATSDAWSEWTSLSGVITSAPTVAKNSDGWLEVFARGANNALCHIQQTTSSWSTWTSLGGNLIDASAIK
- test name: Isothermal titration calorimetry (ITC)
- Format: binding
- stated conditions: stoichiometry fixed to 6, 25 °C, read-out: KD
Answers are plain numbers, in mM.

> print(dat)
                                 compound  unit.tag  val
1  C[C@H](O)[C@@H](O)[C@@H](O)[C@H](O)C=O        mM  3.1

For every item below, please supply its Kd.
1. OC[C@H]1OC(O)[C@H](O)[C@@H](O)[C@@H]1O (stereo partly shown)
2. CO[C@@H]1O[C@@H](C)[C@@H](O)[C@@H](O)[C@@H]1O [methyl α-L-fucopyranoside]
3. CO[C@@H]([C@H](O)[C@H](O)CO)[C@@H](O)C=O

a:
1: 3.3; 2: 0.6; 3: 10.7

Sourced from paper PMC6943638
